# System: T1, human TMEM106B (human, UniProt Q9NUM4 2-274)
# T1 construct: Full-length, on transiently transfected HEK293 cells, or natively expressed on HeLa, U251 and A549 cells; also called huTMEM106B; huTMEM
# Experimental details: FACS, HEK293 transfectants;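 further: flow cytometry binding of hybridoma supernatants to HEK293 cells transiently expressing human, cyno or mouse TMEM106B, read as anti-mouse-APC median fluorescence, live cells only, 30 min on ice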
# fold-change over parental HEK293 per entry
Report as a plain number; the unit fold is understood.

| Binder | Parameter | Obs value |
| --- | --- | --- |
| anti-TMEM106B antibody TM-3 (antibody, V domains shown) VH: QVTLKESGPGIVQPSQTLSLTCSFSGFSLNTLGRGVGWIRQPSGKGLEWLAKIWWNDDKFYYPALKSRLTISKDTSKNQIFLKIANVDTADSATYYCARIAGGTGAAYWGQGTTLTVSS VL: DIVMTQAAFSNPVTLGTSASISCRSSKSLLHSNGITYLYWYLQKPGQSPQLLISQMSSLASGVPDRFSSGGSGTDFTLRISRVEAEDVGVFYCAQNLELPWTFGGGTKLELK | fold-change over parental HEK293 | 24.4 |

Next item in the queue.
Asked: Find the recorded fold-change over parental HEK293 belonging to anti-TMEM106B antibody TM-1 (antibody, V domains shown) VH: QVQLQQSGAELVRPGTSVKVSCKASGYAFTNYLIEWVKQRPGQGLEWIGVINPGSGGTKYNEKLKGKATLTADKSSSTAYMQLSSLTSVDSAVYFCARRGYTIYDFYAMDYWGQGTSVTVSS VL: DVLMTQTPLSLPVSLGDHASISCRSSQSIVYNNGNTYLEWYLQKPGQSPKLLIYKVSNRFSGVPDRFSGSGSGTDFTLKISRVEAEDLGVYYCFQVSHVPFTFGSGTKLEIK and report it.
Given back: 4.72
